# key: entry, value: TGI
System: MCF7 breast
Test: NCI tumour cell line growth inhibition, 48 h

Observe how each entry below is paired with its result.
CN(C)c1ccc(/C=C(\NC(=O)c2ccccc2)C(=O)Nc2ccccc2C(=O)O)cc1 : > 100 µM
CNC(C)C(=O)N[C@H](C(=O)N1CCC[C@@H]1CN(CCc1ccccc1)C(=O)C(F)(F)F)[C@H](C)OCC#CC#CCO[C@H](C)[C@H](NC(=O)[C@H](C)NC)C(=O)N1CCC[C@H]1CN(CCc1ccccc1)C(=O)C(F)(F)F (stereo not given in full) : 1.76 µM
CO/N=C1/c2sccc2[C@H](NC(=O)C(F)(F)F)[C@@H]1O : > 100 µM
CC1(C)C[C@H]2C=C(C=O)[C@]34C[C@]3(C(=O)OC4O)[C@H]2C1 (stereo not given in full) : 5.54 µM
Cc1ccc(CS(=O)(=O)C/N=c2\sc3ccccc3nc2/C=C(\O)c2ccc(Cl)cc2)cc1 : > 10 µM
N#CN1CCC[C@H]1C(=O)N1CCc2c(-c3[nH]nc4ncccc34)cccc21 : 11 µM
CCOC(=O)c1cc(C(=O)c2cc(OC)cc(OC)c2)n2ncc3ccccc3c12 : > 100 µM
COc1cc(C2CC(c3cc(C)ccc3C)=NN2c2ccc(S(=O)(=O)NC(=O)NCc3ccccc3)cc2)cc(OC)c1OC (stereo not given) : 9.56 µM

Value of TGI reported for the compound CN1c2ccccc2S(=O)(=O)n2c(COc3ccc(Cl)cc3)nnc21 is > 100 µM

Value of TGI reported for the compound Cc1nc(/N=C(\N)NC(=O)Nc2ccccc2Cl)sc1C is > 100 µM

Value of TGI reported for the compound O=C1c2ccccc2-c2c1c1ccccc1c(=O)n2CCCN1CCN(CCCn2c3c(c4ccccc4c2=O)C(=O)c2ccccc2-3)CC1 is > 100 µM

Value of TGI reported for the compound N=C(N)n1[nH]c2c(c1=O)CCCC2 is > 100 µM

Value of TGI reported for the compound O=C1/C(=C\c2coc3ccccc3c2=O)c2ccccc2N1c1c(Cl)cccc1Cl is > 100 µM

Value of TGI reported for the compound COC(=O)/C=C1/N=C(N(C)/N=C/c2ccccc2)NC1=O is > 100 µM

Value of TGI reported for the compound Cc1cc2c(cc1C)[n+](=O)c(C(=O)N1CCN(c3ccc([N+](=O)[O-])cc3)CC1)c(C)n2[O-] is > 100 µM

Value of TGI reported for the compound COc1cccc(C2NC(=S)NC(C)=C2C(=O)Nc2ccc(F)c(Cl)c2)c1 (stereo not given) is > 50 µM

###

Test system: NCI-H23 lung
Experiment: NCI tumour cell line growth inhibition, 48 h; in the data active = GI50 below about 0.43 µM; inactive = the rest
Your answer must be one of the following: active, inactive

Recorded results for 5 compounds are shown here.
Cc1cc(-c2nc(-c3ccc(OC(F)(F)F)cc3)no2)nn1Cc1ccnc(N2CCN(C3CC3)CC2)c1 : active
C#COc1cccc(Nc2ncnc3ncc(NC(=O)CCl)cc23)c1 : inactive
c1ccc(-c2nn(-c3ccccc3)[n+](-c3cccc4ccccc34)n2)cc1 : inactive
CC1=C([Se]CC(OC(=O)[C@@H](CO)NC(=O)OC(C)(C)C)C(=O)NC(C)(C)C)C(=O)c2ccccc2C1=O (stereo partly drawn) : inactive
COc1cc([C@@H]2c3cc4c(cc3[C@H](O)[C@H]3COC(=O)[C@H]23)OCO4)cc(OC)c1OC : active

stdin: Name the outcome recorded for CCC[CH2][Sn]([CH2]CCC)([O]C(=O)c1nccnc1N)[O]C(=O)c1nccnc1N in the assay.
stdout: inactive

stdin: Name the outcome recorded for C=C(C)[C@@H]1CCC2=C[C@@H](OC2=O)[C@@H](C(=C)C)C(=O)/C=C(/C)C(=O)C1 in the assay.
stdout: inactive

stdin: Name the outcome recorded for N#CN1CCC[C@H]1C(=O)N1CCc2c(-c3[nH]nc4ncccc34)cccc21 in the assay.
stdout: active
